Give measured Kd for each item. Keep answers brief.
# assayed-system: fibrinogen (Homo sapiens, UniProt P02671+P02675+P02679)
# Construct: purchased Sigma Chemical Co. (St. Louis, Mo.) and Chromogenix AB (Molndal, Sweden)
# Sequence (P02671 20-644 isoform P02671-2 limits assumed): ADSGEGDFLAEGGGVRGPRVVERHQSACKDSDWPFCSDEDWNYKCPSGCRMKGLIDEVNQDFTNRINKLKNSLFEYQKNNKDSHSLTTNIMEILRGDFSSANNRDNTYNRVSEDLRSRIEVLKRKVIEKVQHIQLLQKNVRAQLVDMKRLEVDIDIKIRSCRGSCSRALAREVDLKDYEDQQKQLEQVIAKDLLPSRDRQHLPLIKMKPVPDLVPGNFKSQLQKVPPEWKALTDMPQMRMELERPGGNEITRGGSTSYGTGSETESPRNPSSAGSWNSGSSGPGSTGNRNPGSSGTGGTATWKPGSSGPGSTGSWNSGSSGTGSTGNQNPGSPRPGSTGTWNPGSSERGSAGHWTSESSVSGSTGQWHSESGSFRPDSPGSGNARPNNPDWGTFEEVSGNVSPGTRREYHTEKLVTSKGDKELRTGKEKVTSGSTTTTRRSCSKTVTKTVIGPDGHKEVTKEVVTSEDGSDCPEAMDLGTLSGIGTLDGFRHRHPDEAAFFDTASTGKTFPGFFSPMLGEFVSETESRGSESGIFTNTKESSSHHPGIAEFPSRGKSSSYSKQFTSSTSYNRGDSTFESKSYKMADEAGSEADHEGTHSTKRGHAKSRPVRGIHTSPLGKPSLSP
# Sequence (P02675 31-491): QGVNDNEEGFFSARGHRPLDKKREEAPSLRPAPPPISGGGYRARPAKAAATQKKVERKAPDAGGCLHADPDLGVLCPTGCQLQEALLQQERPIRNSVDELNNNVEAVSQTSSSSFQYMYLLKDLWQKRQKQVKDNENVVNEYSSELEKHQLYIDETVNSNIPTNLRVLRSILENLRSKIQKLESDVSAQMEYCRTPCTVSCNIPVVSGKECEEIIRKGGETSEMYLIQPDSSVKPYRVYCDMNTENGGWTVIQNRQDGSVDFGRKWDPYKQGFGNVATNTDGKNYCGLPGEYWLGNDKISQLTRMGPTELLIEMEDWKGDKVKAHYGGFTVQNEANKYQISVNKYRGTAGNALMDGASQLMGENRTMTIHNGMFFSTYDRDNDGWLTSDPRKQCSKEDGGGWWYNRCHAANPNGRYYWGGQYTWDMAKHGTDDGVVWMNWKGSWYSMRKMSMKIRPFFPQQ
# Sequence (P02679 27-453): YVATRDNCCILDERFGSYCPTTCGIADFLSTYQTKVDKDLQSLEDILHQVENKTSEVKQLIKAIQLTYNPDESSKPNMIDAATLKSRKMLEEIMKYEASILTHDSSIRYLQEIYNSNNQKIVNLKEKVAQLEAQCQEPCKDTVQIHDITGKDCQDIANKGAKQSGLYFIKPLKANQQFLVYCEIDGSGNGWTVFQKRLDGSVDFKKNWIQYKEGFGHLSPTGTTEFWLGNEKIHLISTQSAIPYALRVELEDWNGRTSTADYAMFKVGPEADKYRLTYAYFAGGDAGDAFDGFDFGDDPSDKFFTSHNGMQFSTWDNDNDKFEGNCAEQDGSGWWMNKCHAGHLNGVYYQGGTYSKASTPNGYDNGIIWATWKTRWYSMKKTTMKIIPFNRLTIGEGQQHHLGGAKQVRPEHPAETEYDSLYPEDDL
# assay-procedure: Isothermal titration calorimetry of peptide binding to purified fibrinogen
# assay-context: solution phase binding, soluble peptide; 30° C., 30 mM phosphate buffer, pH 7.0
No end group written: not given here.
Value expressed in µM; do not type the unit.

Look up Kd for this substance: PLLVPL-NH2 [PLLVPL, Pro-Leu-Leu-Val-Pro-Leu]
688

# lookup: Kd of FLLVPL-NH2 [FLLVPL, Phe-Leu-Leu-Val-Pro-Leu]
4.5
